- System: MS2 coat protein
- TEST SUMMARY: apparent KD of MS2 coat protein; designed switch direction (-1 OFF switch, 1 ON switch): -1; higher = weaker reporter binding
- CONDITION SUMMARY: input ligand: microRNA oligo, concentration not stated
Kindly supply the reported apparent KD of MS2 coat protein values for the records listed here.
Just so you know, I need the unit written after the number.

Write down apparent KD of MS2 coat protein measured for item UUAAUUAAUUAUAUAAGAUCACAUGAGGAUCACCCAUGUAUAUAGGAUAUCAGCUCGAUUAGAGCUGAGAAGGAUAUACAAUAU [ExNG3/3-B1] (Eterna round: R96, puzzle: Exclusion NG 3)
138 nM

Identify the reported apparent KD of MS2 coat protein for the following entry. AGAGAAUACUCAGGAUAUCUGAAUAGAAAGAGAAGAGAAGGGAGACAUGAGGAUCACCCAUGUGAAGUCUUGAGACUACAUGGU [Prohibition 27 - Jieux - Exclusion NG 1] (Eterna round: R96, puzzle: Exclusion NG 1)
225 nM

Provide apparent KD of MS2 coat protein value for the following sequence: ACAUGCCUUGCAGGAUAUAGGACACAUGAGGAUCACCCAUGUGGUUUCAUGUCUAACCAAGCGUCCUAGAAGGGCGGGAACAUG [Ex NG2 #28] (Eterna round: R96, puzzle: Exclusion NG 2)
25.8 nM

Output apparent KD of MS2 coat protein of CUCCGGCGUGUAGGAUAUGGAUCCGAUUAGGAUCCAGAAGGACAUGAGGAUCACCCAUGUACAUGUAAACAGUCGUCACCGGGC [salish99_ExNG1_r04_206] (Eterna round: R96, puzzle: Exclusion NG 1)
14 nM

* * *

Would you mind telling me the reported apparent KD of MS2 coat protein of each entry?
- Tested on: MS2 coat protein
- TEST SUMMARY: apparent KD of MS2 coat protein; designed switch direction (-1 OFF switch, 1 ON switch): -1; higher = weaker reporter binding
- CONDITION SUMMARY: input ligand: none
Numeric answer only, unit nM assumed.

Recall the reported apparent KD of MS2 coat protein of GACGCUGACCGAGGAUAUACAAUAAAACAACAAACUCCUCGUGUCAGAACAUGAGGAUCACCCAUGUAGAAGGCGGCAGGUCUA [Rilebibidi] (Eterna round: R96, puzzle: Exclusion NG 2) when tested on MS2 coat protein.
58.1

# return apparent KD of MS2 coat protein of ACAAGCUUUUAGAUUUUCAACAUGAGGAUCACCCAUGUUCGUCUUAUGCUAGUGCUAGUGCGGUGUACUGGUAUUAG [JL TOV1 3.80 sellena mod] (Eterna round: R97, puzzle: Sensor, turn-off variant 1) (system: MS2 coat protein)
16

Find apparent KD of MS2 coat protein for ACUUAUUGAGGAUAUACAGAUUAUUACAUGAGGAUCACCCAUGUUCUUCAAUGUAUAUAUGUAGAAGGCAGAAGAA [JL-ex5-4.25 Malcolm mod] (Eterna round: R97, puzzle: Exclusion 5) on MS2 coat protein and write it down.
56.7

// output apparent KD of MS2 coat protein; input AGCGCCAUCGUGAGAUGGCGUAUUACAUGAGGAUCACCCAUGUAGGAUAUCGAUUGCUUUGCAGUCGAGAAGGACAUGUUCUUC [JL ENG3 3.80 Mod C] (Eterna round: R96, puzzle: Exclusion NG 3) ; system MS2 coat protein
23.2

Under MS2 coat protein, report apparent KD of MS2 coat protein for GAAAAGAACGAGGAUAUGUUGGUGCAUACACUUGCAGAAGGCGUUACUUGAGGAUCACCCAAGUGAGACCGAGU [Cetelege] (Eterna round: R97, puzzle: Exclusion 6)
124

* * *

- Test system: MS2 coat protein
- TEST SUMMARY: apparent KD of MS2 coat protein; designed switch direction (-1 OFF switch, 1 ON switch): -1; higher = weaker reporter binding
- CONDITION SUMMARY: input ligand: none
For each record, write down the corresponding apparent KD of MS2 coat protein.
Please state the value followed by its unit.

Name the recorded apparent KD of MS2 coat protein of the item AGAUUACUGCGAGGAUAUACAUGAGGAUCACCCAUGUGGUGGUGUGAGGCAAAGCCUCACACCAUGUAGAAGGCGCAGUAAUCA [Mat - Exclusion NG 2 - Mod of JL - D22] (Eterna round: R96, puzzle: Exclusion NG 2) in your answer.
44.5 nM

Report apparent KD of MS2 coat protein for GCGCCAUCGUGAGAUGGCGUAAUUACAUGAGGAUCACCCAUGUAGGAUAUCGAUUGCUUUGCAGUCGAGAAGGGCGUGAUAAGU [JL ENG3 3.71] (Eterna round: R96, puzzle: Exclusion NG 3)
68.9 nM

For CUCCGGCGUGUAGGAUAUGGAUCCGAUUAGGAUCCAGAAGGACAUGAGGAUCACCCAUGUACAUGUAAACAGUCGUCACCGGGC [salish99_ExNG1_r04_206] (Eterna round: R96, puzzle: Exclusion NG 1) , write its apparent KD of MS2 coat protein.
18.1 nM

Respond only with apparent KD of MS2 coat protein recorded for AAGAAUCUAGGAUAUUAGCGGGCCUACAUGAGGAUCACCCAUGUCGUGUCGCGGGUAUGCUGAGAAGGAGAGCACA [EX5 B.5] (Eterna round: R97, puzzle: Exclusion 5)
16.3 nM

Please indicate apparent KD of MS2 coat protein recorded for CAGCCCUGAGGAUAUCCAUCCUUGUACAUGAGGAUCACCCAUGUCUCCCUCUGGGCUUUCGGAGAAGGCAGGUAUC [Megrez-6.2] (Eterna round: R97, puzzle: Exclusion 5)
44.5 nM

* * *

- Tested on: MS2 coat protein
- TEST SUMMARY: apparent KD of MS2 coat protein; higher = weaker reporter binding
- CONDITION SUMMARY: Eterna round: R107; input ligand: arginine 13.2 mM
// not satisfied strictly below 20 nM in apparent KD of MS2 coat protein; satisfied otherwise

Reported apparent KD of MS2 coat protein reaches at least 20 nM for CCGCCUGCCUCACAUGAGGAUCACCCAUGUCGAGGACCGGUACGGCCGCCACUCGUCGUCGGUAAUACAGGCAUUGAAUAAUAUA [Vetire] ?
not satisfied

Quick check: does ACAUCCAGGUUAAUCGUGGACAUGGUCGAUACCAGUAUUUUAAUCUACCCUUGGCAGCGACAUGAGGAUCACCCAUGUGCGAUGA [XTheo A #14] have apparent KD of MS2 coat protein greater than or equal to 20 nM?
not satisfied

I'd appreciate it if you could say whether CUAUAAGUAACUGAUACCAGUGUACUGACAUGAGGAUCACCCAUGUUGGGUUUUGUUGUACACCCUUGGCAGCAGAAUCUUAUAG [AstrosExyTheB#14] has apparent KD of MS2 coat protein at least equal to 20 nM.
satisfied

Could you please find out whether GGGCGCUAUCCCGCGAGGGAUAGCGUUCGGCGAGGACCGGUACGGCCGCCACUCGAACGAGUGGGUACAUGAGGAUCACCCAUGU [Faa] has apparent KD of MS2 coat protein that meets 20 nM or exceeds it?
satisfied

Does the reported apparent KD of MS2 coat protein for CUAAGAGUAGGAAGGAGCGACAUGAGGAUCACCCAUGUGGCUCUCAUGGCCCGGGUCUUAUGUCAGGUAGGUCGCCUACUGUUUA [Solave] fall at or above the 20 nM mark?
not satisfied

Reported apparent KD of MS2 coat protein reaches at least 20 nM for GGGUACAUCGCGGCCGCCACUCAUGUAAAUGCAUGAGGAUCACCCAUGCCGAUGGAGACAUCGGAGAGGACCGGGUGAUGUACCG ?
satisfied

* * *

- System: K4 kissing-loop RNA reporter;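 further: bound reporter read as fluorescence of individual clusters on recovered sequencing chips by microscopy, with normalized cluster intensities fitted with a binding model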
- TEST SUMMARY: apparent KD of K4 kissing-loop reporter; higher = weaker reporter binding
- CONDITION SUMMARY: Eterna round: R107; input ligand: tryptophan 2.4 mM
MEASURED QUANTITY: apparent KD of K4 kissing-loop reporter (nM)
Please give a number only; it is taken to be in nM.

Give recorded apparent KD of K4 kissing-loop reporter. UGAUACCAGACGGCCGCCACUGCACCAGUCAAUGACUGAGUGUAGUAAUGCUCAGUGAUGUUGAGUAGGACCGGGUCUGGUAUCU [Mod of Eli's TrypBX 8 v1]
130

Give apparent KD of K4 kissing-loop reporter for AUUAAUUUCAGAGGAUAUCGUAAUUUUAUUUAAUUUAUUCAUUUAUGCAGUGAUGUUGCUAAUAUUCGAGAAGGCUGAUUUAUAA [JR_ExcFMNB_Sub007]
52.2

Consider the sequence GCCGUACGCAUGGAUACCAGCUAGACCGAGUGAUGUUCAGGUCUGAAUGCCGGUAAUAAGAGCCCUUGGCAGCCAUGCGUACGGC and give its recorded apparent KD of K4 kissing-loop reporter.
307

Specify apparent KD of K4 kissing-loop reporter for AAGGUUCGUGGAAGGAGCGCCCGUGCGACUCGUUCACUAAGUGAAGUCCGAGUGAUGUUCGGGCAGGUAGGUCGCCACGGGCAAA [Atonenge] and stop.
153

Check the records and state apparent KD of K4 kissing-loop reporter for UGUCAUUGGUCUGAUACCAGUUAGACCGAUAGGUCAAAACUGGAGUGAUGUUCCCAAAAUAACCCUUGGCAGCAGACCGAUGACU [TheoBS 3 #SwitchBubble #StaticStem]
191

Give the reported value of apparent KD of K4 kissing-loop reporter for this record: AUGGCACCUGCGGCCGCCACUCACUCCGGGCUGCUGGCCAGUGAUGUUGGUACGGCUGCCGGUUAGAGGACCGGGCAGGAGCUAA [Rienisdite]
90.7
